system: c-Abl (mouse); test: phosphorylation enrichment, bacterial display (enrichment ratio); higher = better substrate or ligand; peptides without Tyr show the background;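 note: 11-residue human phosphosite peptides and single-mutation variants displayed on the E. coli surface, counted by deep sequencing, each peptide's frequency after selection divided by its frequency in the unselected input library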;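 note: frequency after pTyr selection over input frequency; kinase dosed for 20-30% of maximal phosphorylation in three min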
Measurement Kind: phosphorylation enrichment

In [3]: df
Out[3]:
                             sequence  measured_value
 0       AKAEICEMRPL [COX10_Y97_Y97C]           0.738
 1        PTTKTYFPHFA [HBA1_Y43_D48A]           0.646
 2     EGNEQYEGYCV [GRIA3_Y451_R450Q]            1.26
 3            EVKEAYMGNVL [ACAT1_Y90]           0.506
 4           DRPSEYAARQL [ANXA13_Y90]           0.579
 5  RENGPYFASFP [GDAP2_Y487_T489A_YF]           0.893
 6      NQELIYEGQRL [TBK1_Y354_R357Q]            2.65
 7     ASYGPNTRVQS [FOXL2_Y258_Y258N]           0.559
 8          PTDSVYVMPTV [MYO7A_Y1668]            3.01
 9      GVMLLYYGRYN [ADGRD1_Y85_T82M]           0.594
10              FTNRNYDLDYD [MYC_Y12]           0.713
11             RRNEEYCLLDS [ITK_Y198]           0.821
12   ISSLPYMKMIF [SLC4A11_Y853_M848I]           0.872
13            LLKAGYHGVLR [TTPA_Y100]           0.926
14  LLVVLNKFRCF [PSEN1_Y154_Y154N_YF]            2.08
15     IHETTHNSIMK [ACTA1_Y281_Y281H]           0.401
16      MILSAYALGGL [CPS1_Y590_R587L]           0.736
17   QRHFVYFFSFL [PTEN_Y176_R173H_YF]            1.31
18        CEQELYSQLVY [WAS_Y102_W97C]            1.14
19           EFKKHYGYSLY [ANXA3_Y295]           0.541
20      CTTIHYNYMFN [TP53_Y234_C238F]           0.926
21   RNVFFYSFLLK [PTEN_Y178_Y174N_YF]            1.23
22        HKANEYYPVVL [ADAMTS18_Y764]            2.49
23        GLGGVYGGASG [KRT8_Y54_G53V]           0.577
24    PPSLSYLSFEG [EXOSC3_Y143_A139P]           0.702
25     TSNQEYLYLSM [FGFR1_Y766_D768Y]           0.975
26      SLFQFYFQQKG [CHKB_Y381_R377L]           0.932
27              EVEFEYPFRLH [SYP_Y73]           0.735
28            KTSGNYLAVTG [WDR19_Y28]           0.445
